Let's look at some molecules and their measured Activity (relative to RLuc) n.
experiment: Luciferase activity of purified RLuc mutants (light output integrated over 10 s, luminometer); assay type: biochemical; conditions: coelenterazine-n; relative to native enzyme
# print the numeric value only

C124A/S287L: RLuc mutant C124A/S287L (protein) MASKVYDPEQRKRMITGPQWWARCKQMNVLDSFINYYDSEKHAENAVIFLHGNAASSYLWRHVVPHIEPVARCIIPDLIGMGKSGKSGNGSYRLLDHYKYLTAWFELLNLPKKIIFVGHDWGAALAFHYSYEHQDKIKAIVHAESVVDVIESWDEWPDIEEDIALIKSEEGEKMVLENNFFVETMLPSKIMRKLEPEEFAAYLEPFKEKGEVRRPTLSWPREIPLVKGGKPDVVQIVRNYNAYLRASDDLPKMFIESDPGFFSNAIVEGAKKFPNTEFVKVKGLHFLQEDAPDEMGKYIKSFVERVLKNEQ :: 5.0

Okay, now this molecule:
Task: Give recorded Activity (relative to RLuc) n. C124A/Q235A: RLuc mutant C124A/Q235A (protein) MASKVYDPEQRKRMITGPQWWARCKQMNVLDSFINYYDSEKHAENAVIFLHGNAASSYLWRHVVPHIEPVARCIIPDLIGMGKSGKSGNGSYRLLDHYKYLTAWFELLNLPKKIIFVGHDWGAALAFHYSYEHQDKIKAIVHAESVVDVIESWDEWPDIEEDIALIKSEEGEKMVLENNFFVETMLPSKIMRKLEPEEFAAYLEPFKEKGEVRRPTLSWPREIPLVKGGKPDVVAIVRNYNAYLRASDDLPKMFIESDPGFFSNAIVEGAKKFPNTEFVKVKGLHFSQEDAPDEMGKYIKSFVERVLKNEQ
Result: 1.0
